Below, each entry is listed with its recorded IC50.
assay-target: MCL-1 (Homo sapiens)
Sequence (Q07820 whole entry): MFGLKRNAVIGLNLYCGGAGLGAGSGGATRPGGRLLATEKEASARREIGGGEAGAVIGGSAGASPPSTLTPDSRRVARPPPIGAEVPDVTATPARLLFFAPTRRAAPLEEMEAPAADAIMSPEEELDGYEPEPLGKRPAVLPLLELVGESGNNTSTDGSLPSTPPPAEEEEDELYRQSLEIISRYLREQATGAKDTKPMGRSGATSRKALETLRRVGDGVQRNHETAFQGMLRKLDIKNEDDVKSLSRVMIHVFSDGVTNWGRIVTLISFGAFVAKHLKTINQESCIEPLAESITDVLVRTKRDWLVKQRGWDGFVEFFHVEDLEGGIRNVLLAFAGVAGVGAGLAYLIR
assay-procedure: Protein-protein interaction assay MCL-1/Noxa BH3 peptide (MCL-1 assay), TR-FRET
Format: binding
experimental-conditions: MBP-MCL-1 / Noxa BH3-derived peptide, median
Report as a plain number; the unit µM is understood.

Example cases with answers are listed next.
| molecule | endpoint-unit | IC50 |
| --- | --- | --- |
| COCCn1nc(C2CC2)c2c1COCCCCn1c(C(=O)O)c(CCCOc3cccc4c3CCCC4)c3cccc-2c31 (single isomer, unassigned; enantiomer 2) [Example 166] | µM | 0.041 |
| COCc1c2c(nn1C)COCCCCn1c(C(=O)O)c(CCCOc3cccc4ccccc34)c3cccc-2c31 (single isomer, unassigned; enantiomer 1) [Example 100] | µM | 0.0424 |
| Cn1nc(CCN2CCOCC2)c2c1COCCCCn1c(C(=O)O)c(CCCOc3cccc4ccccc34)c3cccc-2c31 (single isomer, unassigned; enantiomer 2) [Example 152] | µM | 0.379 |
| COc1cc2cc(c1)-c1cccc3c(CCCOc4cccc5c4CCCC5)c(C(=O)O)n(c13)CCCCCO2 (racemic) | µM | 8.28 |
| Cc1ccc2cc1-c1cccc3c(CCCOc4cccc5ccccc45)c(C(=O)O)n(c13)CCOCCO2 (racemic) | µM | 0.633 |
| CN1CCCn2c(C(=O)O)c(CCCOc3cccc4ccccc34)c3cccc(c32)-c2c(COc3ccccc3)nn(C)c2C1 (single isomer, unassigned) [Example 1-82] | µM | 0.113 |

Recorded IC50 (molecule Cn1nc2c(c1OC(F)F)-c1cccc3c(CCCOc4cccc5ccccc45)c(C(=O)O)n(c13)CCCCOC2 (single isomer, unassigned) [Example 236] ): 0.00678

Recorded IC50 (molecule CCc1nn(C)c2c1-c1c(C)ccc3c(C(C)CCOc4cccc5cc(F)ccc45)c(C(=O)O)n(c13)CCCCOC2 (single isomer, unassigned) [Example 265] ): 0.00585

Recorded IC50 (molecule CN1CCCn2c(C(=O)O)c(CCCOc3cccc4ccccc34)c3cccc(c32)-c2c(nn3c2CCCC3)C1 (racemic) ): 0.0248

Recorded IC50 (molecule Cc1c2c(nn1C)COCCCn1c(C(=O)O)c(CCCOc3cccc4ccccc34)c3cccc-2c31 (single isomer, unassigned; enantiomer 2) [Example 065] ): 0.0393

Recorded IC50 (molecule Cc1ccc2c(CCCOc3cccc4ccccc34)c(C(=O)O)n3c2c1-c1c(C)nn(C)c1COCCC3 (single isomer, unassigned; enantiomer 2) [Example 026] ): 0.0234

Recorded IC50 (molecule COc1cc2cc(c1)-c1cccc3c(CCCOc4cccc5ccccc45)c(C(=O)O)n(c13)CCCCCO2 (racemic) ): 6.88
